STUDY SYSTEM: human immunoglobulin IgG
OUTCOME MEASURE: koff (s⁻¹)

1 = OXADac-PG15 (designed binder) MGAGTPVTAPLAGTIWKVLASEGQTVAAGEVLLILEAMKMETEIRAAQAGTVRGIAVKAGDAVAVGDTLMTLAGSGSDLYDDDDKGIITSLYKKAGSAAAPFTDTYKLILNGKRLKGETTTEAVDAATAEKVFKQYANEHGVDGEWTYDPETKTFTVTE
2 = OXADac-PG19 (designed binder) MGAGTPVTAPLAGTIWKVLASEGQTVAAGEVLLILEAMKMETEIRAAQAGTVRGIAVKAGDAVAVGDTLMTLAGSGSDLYDDDDKGIITSLYKKAGSAAAPFTDTYKLILNGKTLKGETTTEAVDAATAEKVFKHYANEHGVHGHWTYDPETKTFTVTE
3 = OXADac-PG14 (designed binder) MGAGTPVTAPLAGTIWKVLASEGQTVAAGEVLLILEAMKMETEIRAAQAGTVRGIAVKAGDAVAVGDTLMTLAGSGSDLYDDDDKGIITSLYKKAGSAAAPFTDTYKLILNGKTLKGETTTEAVDAATAEKVFKQYANEHGVDGHWTYDPETKTFTVTE
Task: Highest koff first, then in falling order down to the smallest. List the labels, following the order given in the request.
Result: 2, 3, 1
(2: 0.27 s⁻¹, 3: 0.04 s⁻¹, 1: 0.00044 s⁻¹)
